# Assay Procedure: Antagonist activity at PAR1 in human platelet rich plasma assessed as inhibition of haTRAP-induced platelet aggregation preincubated for 1 hr followed by haTRAP addition measured for 10 mins by spectrophotometric analysis
pIC50: −log10 of the molar value.

Molecule: CS(=O)(=O)NC1C[C@@H]2CCCC[C@@H]2[C@H]1/C=C/c1ccc(-c2cccc(F)c2)cn1 (some centres not stated)
pIC50: 5.41

Molecule: CC1(OC(N)=O)C[C@@H]2CCCC[C@@H]2[C@H]1C=Cc1ccc(-c2cccc(F)c2)cn1 (some centres not stated)
pIC50: 7.00

Molecule: CN(C1C[C@@H]2CCCC[C@@H]2[C@H]1/C=C/c1ccc(-c2cccc(F)c2)cn1)S(C)(=O)=O (some centres not stated)
pIC50: 7.01

Molecule: CC(=O)N(C)C1C[C@@H]2CCCC[C@@H]2[C@H]1/C=C/c1ccc(-c2cccc(F)c2)cn1 (some centres not stated)
pIC50: 5.05

Molecule: O=C1NCC2(C[C@@H]3CCCC[C@@H]3[C@H]2C=Cc2ccc(-c3cccc(F)c3)cn2)O1 (some centres not stated)
pIC50: 6.68

Molecule: Fc1cccc(-c2ccc(/C=C/[C@@H]3[C@H]4CCCC[C@H]4CC34OCCO4)nc2)c1
pIC50: 5.39

Molecule: CCOC(=O)N[C@@H]1CC[C@@H]2[C@@H](C1)C[C@H]1C(=O)O[C@H](C)[C@H]1[C@H]2C=Cc1ccc(-c2cccc(F)c2)cn1
pIC50: 6.92

====

# Assay Procedure: Antagonist activity at PAR1 in washed human platelets assessed as inhibition of haTRAP-induced platelet aggregation preincubated for 1 hr followed by haTRAP addition measured for 10 mins by spectrophotometric analysis
Criterion: IC50 strictly less than 7 nM. Met: Criterion met. Not met: Criterion not met.

Compound: CS(=O)(=O)OC1C[C@@H]2CCCC[C@@H]2[C@H]1/C=C/c1ccc(-c2cccc(F)c2)cn1 (stereo partly drawn)
Category: Criterion met
//
Compound: CC1(OC(N)=O)C[C@@H]2CCCC[C@@H]2[C@H]1C=Cc1ccc(-c2cccc(F)c2)cn1 (stereo partly drawn)
Category: Criterion met
//
Compound: CN(C1C[C@@H]2CCCC[C@@H]2[C@H]1/C=C/c1ccc(-c2cccc(F)c2)cn1)S(C)(=O)=O (stereo partly drawn)
Category: Criterion met
//
Compound: Fc1cccc(-c2ccc(/C=C/[C@@H]3[C@H]4CCCC[C@H]4CC34OCCO4)nc2)c1
Category: Criterion not met
//
Compound: CC(=O)N(C)C1C[C@@H]2CCCC[C@@H]2[C@H]1/C=C/c1ccc(-c2cccc(F)c2)cn1 (stereo partly drawn)
Category: Criterion not met
//
Compound: CCOC(=O)N[C@@H]1CC[C@@H]2[C@@H](C1)C[C@H]1C(=O)O[C@H](C)[C@H]1[C@H]2C=Cc1ccc(-c2cccc(F)c2)cn1
Category: Criterion met
//
Compound: CS(=O)(=O)NC1C[C@@H]2CCCC[C@@H]2[C@H]1/C=C/c1ccc(-c2cccc(F)c2)cn1 (stereo partly drawn)
Category: Criterion not met
